assayed-target: erythrocytes infected with P. falciparum field isolate 9215
method: flow cytometry, staining of IEs
measured-endpoint: % parasite recognition (%)
Answers are plain numbers, in %.

Guide cases for % parasite recognition, answers given:
# binder, assay-result
data = [
    ("MGC36 (antibody) VH: EVVLVESGGGLVQPGGSLRLSCEASGFNSRSYWMTWVRQAPGKGLEWVASINQDGTEKNYVDSVKGRFTISRDSAKNSLYLQMSSLRADDTAVYYCARDRFCGGESHLHGEEDLPRPSISAEPDTVIPLGSHVTFVCRGPVGVHTFRLERGWRYNDTEDVSQAGPSESEARFRIDSVREGNAGLYRCIYYIAPKWSEQSDYLELRVKGGDVTWALLTYCGGDGEESDYPMDVWGKGTTVTVSS VL: QTVVTQEPSLTVSPGGTVTLTCASSTGPVTSAYYPNWFQQKPGQAPRSLIYSINKKHSWTPARFSGSLLGGKAALTLSGVQPEDEADYYCLLSCGGAQPWVFGGGTKLTVQ", 12.4),
    ("MGD56 (antibody) VH: QVQLQESGPGLVKPSGTLSLTCAVSGGSITTNNWWSWVRQTPGKGLEWIGEIFRSGTTNYNPSLKSRVAISLDKSKNQFSLKLTSVTAADTAVYYCATASPFKSQRDTKDLPRPSLSAEPGTVIPLGSHVTFVCRGPVGVQTFRLQRESRSLYNDTEDVSHPSPSESEARFRIDSVSEGNAGPYRCVYYKSSKWSEESDCLELLVKTEDVTWARPQPQLDPRACPRGDLRISTDVYYMDVWGKGTTVTVSS VL: AIRMTQSPSSLSASTGDRVTITCRASQAITSYLAWYRQKPGKAPDLLIYNASTLQSGVPSRFSASGSGTDFALTITGLQSEDFVIYFCQHYYTYPPAFGQGTRLEIK", 12),
]

Below: the item to evaluate.
## Input For the binder MGD47 (antibody) VH: QVRLQESGPGLVKPSGTLSLTCTVSGGSISGYKWWSWVRQAPGKGLEWIGQVYDDGDTNYNPDLKGRVALSVDKSKSRFSLSLASVTAADTAIYFCATISPLRPQSDTGDLPRPSISAEPGTAIPLGSQVTFVCRGPIGVQTFRLERESRALYNDSEDVSQVSPSASEARFRIDSVSEGNAGPYRCIYYKARRWSDQSDYLELLVKGEDVTWALPQSQLAPRACPQEDLNISTDIFSTNVWGKGTTVTVSS VL: AIRMTQSPASLSASVGDRVTITCRTSQDVGNYLDWYQQKPGKAPKLLIHGASTLQAGVPSRFNGSGSGTDFTLGISCVQSGDFAIYYCQQYYTSPPVFGQGTRLEIK , what % parasite recognition is on record?
## Output 22.3
